- System Under Test: human somatostatin receptor subtype 2 (Homo sapiens, UniProt P30874)
- Construct: expressed in transfected cells
- Sequence (P30874 whole entry): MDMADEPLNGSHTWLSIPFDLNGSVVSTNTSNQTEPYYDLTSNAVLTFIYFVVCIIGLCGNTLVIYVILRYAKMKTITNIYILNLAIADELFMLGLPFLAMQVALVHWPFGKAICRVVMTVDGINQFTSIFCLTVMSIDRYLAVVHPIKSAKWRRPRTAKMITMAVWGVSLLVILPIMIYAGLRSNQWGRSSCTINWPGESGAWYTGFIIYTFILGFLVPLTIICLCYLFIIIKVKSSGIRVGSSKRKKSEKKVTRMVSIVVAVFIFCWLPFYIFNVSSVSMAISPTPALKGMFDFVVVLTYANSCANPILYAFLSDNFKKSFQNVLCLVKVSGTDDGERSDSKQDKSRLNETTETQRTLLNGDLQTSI
- Experiment Notes: Functional cAMP assay for SSTR2 agonists (HTRF) in CHO-K1 cells
- Assay type: cell-based
- Details: CHO-K1 cells stably expressing human SST2, 20 min; read-out: hSST2 cAMP Avg EC50
Property Name: EC50
Answer shape: numeric part, then the unit.

Recorded EC50, per entry:
| Compound | EC50 |
| --- | --- |
| CC[C@H](C)[C@@H]([C@@H](CC(=O)N1CCC[C@H]1[C@H](OC)[C@@H](C)C(=O)N[C@H](C)[C@@H](O)c1ccccc1)OC)N(C)C(=O)[C@@H](NC(=O)[C@H](C(C)C)N(C)C(=O)OCc1ccc(NC(=O)[C@H](CCCNC(N)=O)NC(=O)[C@@H](NC(=O)CCOCCNC(=O)CN2CCN(CC(=O)O)CCN(CC(=O)NCCNc3ncc(-c4cc(C)cc(F)c4)c(N4CCC(N)CC4)c3-c3nc4ccc(Cl)cc4[nH]3)CC2)C(C)C)cc1)C(C)C | 0.071 nM |
| CC[C@H](C)[C@@H]([C@@H](CC(=O)N1CCC[C@H]1[C@H](OC)[C@@H](C)C(=O)N[C@H](C)[C@@H](O)c1ccccc1)OC)N(C)C(=O)[C@@H](NC(=O)[C@H](C(C)C)N(C)C(=O)OCc1ccc(NC(=O)[C@H](C)NC(=O)[C@@H](NC(=O)CCOCCC(=O)N(C)CCNc2ncc(-c3cc(C)cc(F)c3)c(N3CCC(N)CC3)c2-c2nc3ccc(Cl)cc3[nH]2)C(C)C)c(O[C@@H]2O[C@H](C(=O)O)[C@@H](O)[C@H](O)[C@H]2O)c1)C(C)C | 0.51 nM |

Query: Entry under review: CCC(C)C(C(CC(=O)N1CCCC1C(OC)C(C)C(=O)NC(C)C(O)c1ccccc1)OC)N(C)C(=O)C(NC(=O)C(C(C)C)N(C)C(=O)OCc1ccc(NC(=O)[C@H](CCCNC(N)=O)NC(=O)[C@@H](NC(=O)CCOCCOCCC(=O)NCCNc2ncc(-c3cc(C)cc(F)c3)c(N3CCC(N)CC3)c2-c2nc3ccc(Cl)cc3[nH]2)C(C)C)cc1)C(C)C (stereo in doubt) . Reported EC50?
Result: 0.2 nM

Query: Do the same for CCC(C)C(C(CC(=O)N1CCCC1C(OC)C(C)C(=O)NC(C)C(O)c1ccccc1)OC)N(C)C(=O)C(NC(=O)C(C(C)C)N(C)C(=O)OCc1ccc(NC(=O)[C@H](CCCNC(N)=O)NC(=O)[C@@H](NC(=O)CCOCCC(=O)NCCNc2ncc(-c3cc(C)cc(F)c3)c(N3CCC(N)CC3)c2-c2nc3ccc(Cl)cc3[nH]2)C(C)C)cc1)C(C)C (stereo in doubt) please
Result: 0.3 nM

Query: Do the same for `CC[C@H](C)[C@@H]([C@@H](CC(=O)N1CCC[C@H]1[C@H](OC)[C@@H](C)C(=O)N[C@H](C)[C@@H](O)c1ccccc1)OC)N(C)C(=O)[C@@H](NC(=O)[C@H](C(C)C)N(C)C(=O)OCc1ccc(NC(=O)[C@H](C)NC(=O)[C@@H](NC(=O)CCCC(=O)N(C)CC(=O)NCCNc2ncc(-c3cc(C)cc(F)c3)c(N3CCC(N)CC3)c2-c2nc3ccc(Cl)cc3[nH]2)C(C)C)c(O[C@@H]2O[C@H](C(=O)O)[C@@H](O)[C@H](O)[C@H]2O)c1)C(C)C` please
Result: 0.33 nM

The measurements presented in this section are drawn from patent US12134610B2.
